# Test system: E. coli TESEC Mtb Alr
# assay-procedure: growth (OD600 after 10 h); higher = more growth (less inhibition)
# particulars: arabinose 10000 nM; compound 0.1 mM; raw OD600 reference: median of DMSO wells 0.264, cell-free background 0.041
Counter-ions that a name gives are not always drawn.
assay-readout: growth

>>> numeric_value("c1ccc(CNc2ncnc3nc[nH]c23)cc1")
0.262
>>> numeric_value("CS(=O)(=O)OCCCCOS(C)(=O)=O")
0.272
>>> numeric_value("COc1cc2nc(N3CCN(C(=O)C4COc5ccccc5O4)CC3)nc(N)c2cc1OC (stereo not drawn) [Doxazosin mesylate]")
0.0476
>>> numeric_value("Cn1c(=O)c2c(ncn2CC2OCCO2)n(C)c1=O")
0.259
>>> numeric_value("CO[C@@]1(NC(=O)CSCC#N)C(=O)N2C(C(=O)O)=C(CSc3nnnn3C)CS[C@@H]21 [Cefmetazole sodium salt]")
0.0395
>>> numeric_value("CC[N+](C)(CC)CCOC(=O)C1c2ccccc2Oc2ccccc21 [Methantheline bromide]")
0.287
>>> numeric_value("CC(C)(CO)C(O)C(=O)NCCCO (stereo not drawn)")
0.261
>>> numeric_value("CC1(C)[C@@H](OC(=O)CCC(=O)O)CC[C@]2(C)[C@H]3C(=O)C=C4[C@@H]5C[C@@](C)(C(=O)O)CC[C@]5(C)CC[C@@]4(C)[C@]3(C)CC[C@@H]12 [Carbenoxolone disodium salt]")
0.261

###

Listed compounds paired with reported growth
# Tested on: E. coli TESEC Mtb Asd
# assay-procedure: growth (OD600 after 10 h); higher = more growth (less inhibition)
# particulars: arabinose induction (level): Low; compound 0.1 mM; raw OD600 reference: median of DMSO wells 0.417, cell-free background 0.041
Counter-ions that a name gives are not always drawn.
assay-readout: growth

>>> numeric_value("CC(=O)O[C@]1(C(C)=O)CC[C@H]2[C@@H]3C=C(C)C4=CC(=O)CC[C@]4(C)[C@H]3CC[C@@]21C [Megestrol acetate]")
0.46
>>> numeric_value("COc1ccc2cc(CCC(C)=O)ccc2c1")
0.247
>>> numeric_value("CC1(C)NC(=O)N(c2ccc([N+](=O)[O-])c(C(F)(F)F)c2)C1=O [Nilutamide]")
0.399
>>> numeric_value("CCCCCCNC(=O)n1cc(F)c(=O)[nH]c1=O")
0.359
>>> numeric_value("NS(=O)(=O)c1cc2c(cc1Cl)NCNS2(=O)=O [Hydrochlorothiazide]")
0.408
>>> numeric_value("CC(=O)c1ccc(S(=O)(=O)NC(=O)NC2CCCCC2)cc1 [Acetohexamide]")
0.455
>>> numeric_value("C#Cc1cccc(Nc2ncnc3cc(OCCOC)c(OCCOC)cc23)c1")
0.303
>>> numeric_value("O=c1[nH]c(=O)n([C@H]2C[C@H](O)[C@@H](CO)O2)cc1I")
0.276
>>> numeric_value("O=C(Oc1cccc2cccnc12)c1ccccc1")
0.289
>>> numeric_value("COc1ccc(CC2c3cc(OC)c(OC)cc3CC[N+]2(C)CCC(=O)OCCCCCOC(=O)CC[N+]2(C)CCc3cc(OC)c(OC)cc3C2Cc2ccc(OC)c(OC)c2)cc1OC (stereo not drawn) [Atracurium besylate]")
0.398
>>> numeric_value("CN1Cc2c(N)cccc2C(c2ccccc2)C1 (stereo not drawn) [Nomifensine maleate]")
0.357
>>> numeric_value("COc1cc2nc(N(C)CCCNC(=O)C3CCCO3)nc(N)c2cc1OC (stereo not drawn) [Alfuzosin hydrochloride]")
0.361
>>> numeric_value("CC(=O)OCC(=O)[C@@]1(OC(C)=O)[C@@H](C)C[C@H]2[C@@H]3C[C@H](F)C4=CC(=O)C=C[C@]4(C)[C@@]3(F)[C@@H](O)C[C@@]21C [Diflorasone Diacetate]")
0.228
>>> numeric_value("CC(C(=O)O)c1ccc(C(=O)c2ccccc2)s1 (stereo not drawn)")
0.285
>>> numeric_value("Cc1ncc([N+](=O)[O-])n1CCO")
0.378
>>> numeric_value("CN1CCN(C2=Nc3ccccc3Oc3ccc(Cl)cc32)CC1 [Loxapine succinate]")
0.214
>>> numeric_value("C/C=C(/C(=C/C)c1ccc(O)cc1)c1ccc(O)cc1")
0.0498
>>> numeric_value("Cc1nc2ccccn2c(=O)c1CCN1CCC(C(=O)c2ccc(F)cc2)CC1")
0.395

###

This section presents compounds with their documented growth values.
# Test system: E. coli TESEC Mtb Alr
# assay-procedure: growth (OD600 after 10 h); higher = more growth (less inhibition)
# particulars: arabinose 1000000 nM; compound 0.1 mM; raw OD600 reference: median of DMSO wells 0.193, cell-free background 0.041
Counter-ions that a name gives are not always drawn.
assay-readout: growth

>>> numeric_value("CCS(=O)(=O)CCn1c([N+](=O)[O-])cnc1C")
0.169
>>> numeric_value("CC(C(=O)O)c1ccc(N2Cc3ccccc3C2=O)cc1 (centres undefined)")
0.189
>>> numeric_value("C[N+](C)(C)CCOC(N)=O")
0.186
>>> numeric_value("CN(C)CCCC1(c2ccc(F)cc2)OCc2cc(C#N)ccc21 (centres undefined) [Citalopram Hydrobromide]")
0.155
>>> numeric_value("Cc1cn([C@H]2C=C[C@@H](CO)O2)c(=O)[nH]c1=O")
0.119
>>> numeric_value("Cn1c(=O)c2c(ncn2CC(O)CO)n(C)c1=O (centres undefined)")
0.182
>>> numeric_value("Oc1ncnc2[nH]ncc12")
0.172
>>> numeric_value("CC(=O)O[C@]1(C(C)=O)CC[C@H]2[C@@H]3C=C(C)C4=CC(=O)CC[C@@H]4[C@H]3CC[C@@]21C [Nomegestrol acetate]")
0.061
>>> numeric_value("CN(C)CCOC(=O)C(c1ccccc1)C1(O)CCCC1 (centres undefined) [Cyclopentolate hydrochloride]")
0.19

###

# Tested on: E. coli TESEC Mtb Alr
# assay-procedure: growth (OD600 after 10 h); higher = more growth (less inhibition)
# particulars: arabinose 1000000 nM; compound 0.1 mM; raw OD600 reference: median of DMSO wells 0.193, cell-free background 0.041
Counter-ions that a name gives are not always drawn.
assay-readout: growth

>>> numeric_value("CCN(CC)CCOc1ccc(C(=C(Cl)c2ccccc2)c2ccccc2)cc1 [Clomiphene citrate (Z,E)]")
0.0493
>>> numeric_value("COc1ccc2c(c1)c(CC(=O)O)c(C)n2C(=O)c1ccc(Cl)cc1")
0.0963
>>> numeric_value("CC(=O)OCC(=O)[C@@]12OC3(CCCC3)O[C@@H]1C[C@H]1[C@@H]3CCC4=CC(=O)C=C[C@]4(C)[C@@]3(F)[C@@H](O)C[C@@]12C [Amcinonide]")
0.242
>>> numeric_value("CN(C)CC/C=C1/c2ccccc2Sc2ccc(Cl)cc21 [Chlorprothixene hydrochloride]")
0.042
>>> numeric_value("NC(=O)c1ncn([C@@H]2O[C@H](CO)[C@@H](O)[C@H]2O)n1")
0.0816
>>> numeric_value("O=C1CN(/N=C/c2ccc(-c3ccc([N+](=O)[O-])cc3)o2)C(=O)N1 [Dantrolene sodium salt]")
0.105
>>> numeric_value("CN1CCN(c2c(F)cc3c(=O)c(C(=O)O)cn4c3c2SCC4)CC1")
0.0396
>>> numeric_value("COc1ccccc1N1CCN(CCCCNC(=O)c2ccc3ccccc3c2)CC1")
0.124
>>> numeric_value("CN(C)CC/C=C1\\c2ccccc2CSc2ccccc21 [Dosulepin hydrochloride]")
0.146
>>> numeric_value("CC(=O)Nc1ccc(O)cc1")
0.188
>>> numeric_value("CCn1cc(C(=O)O)c(=O)c2ccc(C)nc21 [Nalidixic acid sodium salt]")
0.0413
>>> numeric_value("Cc1cc(CC(=O)O)n(C)c1C(=O)c1ccc(Cl)cc1 [Zomepirac sodium salt]")
0.194
>>> numeric_value("C[C@H]1NC(=O)NC1=O")
0.186
>>> numeric_value("C[C@]12C[C@H](O)[C@H]3[C@@H](CCC4=CC(=O)CC[C@@]43C)[C@@H]1CC[C@@H]2C(=O)CO")
0.16
>>> numeric_value("O=C(O)CCNC(=O)c1ccc(/N=N/c2ccc(O)c(C(=O)O)c2)cc1 [Balsalazide Sodium]")
0.206
>>> numeric_value("C=C1/C(=C\\C=C2/CCC[C@]3(C)[C@@H]([C@H](C)/C=C/[C@@H](O)C4CC4)CC[C@@H]23)C[C@@H](O)C[C@@H]1O")
0.0524
>>> numeric_value("CCCNC(C)C(=O)Nc1c(C)csc1C(=O)OC (configuration not stated) [Articaine hydrochloride]")
0.162
>>> numeric_value("O=C(Oc1cccc2cccnc12)c1ccccc1")
0.198
>>> numeric_value("CC[C@@H]1C(=O)OC[C@@H]1Cc1cncn1C [Pilocarpine nitrate]")
0.18
>>> numeric_value("CCC(=O)[C@@]1(C)[C@H](C)C[C@H]2[C@@H]3CCC4=CC(=O)C=C[C@]4(C)[C@H]3[C@@H](O)C[C@@]21C [Rimexolone]")
0.148
>>> numeric_value("C1CCC(C(CC2CCCCN2)C2CCCCC2)CC1 (configuration not stated) [Perhexiline maleate]")
0.039
>>> numeric_value("CC(=O)c1ccc2c(c1)N(CCCN(C)C)c1ccccc1S2 [Acetopromazine maleate salt]")
0.123
>>> numeric_value("CSc1ccc2c(c1)C(N1CCN(C)CC1)Cc1ccccc1S2 (configuration not stated) [Methiothepin maleate]")
0.0392
>>> numeric_value("CCc1c2c(nc3ccc(OC(=O)N4CCC(N5CCCCC5)CC4)cc13)-c1cc3c(c(=O)n1C2)COC(=O)[C@]3(O)CC [Irinotecan hydrochloride trihydrate]")
0.18
>>> numeric_value("C[C@@H]1C[C@H]2[C@@H]3CCC4=CC(=O)C=C[C@]4(C)[C@@]3(Cl)[C@@H](O)C[C@]2(C)[C@@]1(OC(=O)c1ccco1)C(=O)CCl [Mometasone furoate]")
0.0878
>>> numeric_value("CCN(CC)CCOC(=O)c1ccc(N)cc1 [Procaine hydrochloride]")
0.193
>>> numeric_value("COc1nc(C)nc(Cl)c1NC1=NCCN1")
0.187
>>> numeric_value("C/C(=C(\\CCOP(=O)(O)O)SC(=O)c1ccccc1)N(C=O)Cc1cnc(C)nc1N")
0.186
>>> numeric_value("Nc1ccc(S(=O)(=O)Nc2ncccn2)cc1")
0.155
>>> numeric_value("c1ccc2[nH]c(-c3cscn3)nc2c1")
0.188
>>> numeric_value("CO[C@H]1C[C@H](O[C@H]2[C@H](C)[C@@H](O[C@@H]3O[C@H](C)C[C@H](N(C)C)[C@H]3OC(C)=O)[C@@H](C)C[C@@]3(CO3)C(=O)[C@H](C)[C@@H](OC(C)=O)[C@@H](C)[C@@H](C)OC(=O)[C@@H]2C)O[C@@H](C)[C@@H]1OC(C)=O")
0.0492
>>> numeric_value("NC(=O)N1c2ccccc2CC(=O)c2ccccc21 [Oxcarbazepine]")
0.171
